system: A549; assay: NCI tumour cell line growth inhibition, 48 h
Active and inactive are the calls of the source. Rule as the data show it: active = GI50 up to about 1.1 µM and inactive = higher.
Measurement name: GI50

Solved cases (3 shown):
>>> result_value("c1ccc2c(c1)cc1ccc3cccc4ccc2c1c34")
"> 100 µM (inactive)"
>>> result_value("O=C(O)c1cncc(C(=O)O)c1")
"> 100 µM (inactive)"
>>> result_value("CCOC(=O)CCC(NC(=O)c1ccc(Nc2nc3ccccc3n3cccc23)cc1)C(=O)OCC (stereo not given)")
"39.6 µM (inactive)"

Report GI50 for Cc1cc(S(=O)(=O)Nc2nc3ccccc3[nH]2)c(S)cc1Cl 45.2 µM (inactive)

Determine from records and report GI50 for O=C(O)c1cc(S(=O)(=O)N/N=C\c2c3ccccc3[n+]([O-])c3ccccc23)ccc1O 22.7 µM (inactive)

Data provenance: ChEMBL document CHEMBL1201862
